# Target entity: dipeptidyl peptidase 4 (DPP4) (Homo sapiens, UniProt P27487)
# Sequence (P27487 39-766): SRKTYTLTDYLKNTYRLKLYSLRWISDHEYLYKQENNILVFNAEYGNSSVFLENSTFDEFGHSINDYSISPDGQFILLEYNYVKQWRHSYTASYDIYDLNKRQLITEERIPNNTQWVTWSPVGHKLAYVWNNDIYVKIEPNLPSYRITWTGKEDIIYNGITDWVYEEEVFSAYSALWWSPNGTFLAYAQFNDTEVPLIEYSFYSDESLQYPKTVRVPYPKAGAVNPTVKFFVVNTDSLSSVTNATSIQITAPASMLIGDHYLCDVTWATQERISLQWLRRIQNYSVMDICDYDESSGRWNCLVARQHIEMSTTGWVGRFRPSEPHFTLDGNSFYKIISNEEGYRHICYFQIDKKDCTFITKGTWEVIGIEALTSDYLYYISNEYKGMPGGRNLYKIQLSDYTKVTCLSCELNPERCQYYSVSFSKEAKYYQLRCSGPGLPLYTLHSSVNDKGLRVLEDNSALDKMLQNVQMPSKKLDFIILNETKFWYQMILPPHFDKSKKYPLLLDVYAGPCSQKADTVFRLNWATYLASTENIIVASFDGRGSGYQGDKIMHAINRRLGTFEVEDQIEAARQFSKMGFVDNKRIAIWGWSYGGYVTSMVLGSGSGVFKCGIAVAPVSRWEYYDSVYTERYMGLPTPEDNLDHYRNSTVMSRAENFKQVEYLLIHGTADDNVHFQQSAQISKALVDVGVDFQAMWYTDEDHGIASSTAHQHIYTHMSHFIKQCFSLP
Endpoint: pIC50
The read-out pIC50 is expressed as -log10 of concentration in moles per litre.

# value of pIC50, dipeptidyl peptidase 4 (DPP4) (Homo sapiens, UniProt P27487), item O=C(Nc1cc(C(F)(F)F)cc(C(F)(F)F)c1)c1cc(Cl)ccc1O [IMD-0354] = 5.04
